Give measured HTR at most efficacious dose (bound) for each item. Keep answers brief.
# Test system: C57BL/6 mice
# Protocol text: Mouse head twitch response (HTR) assay (observer-counted)
# Assay type: in vivo
# Reported conditions: SC, 20 min, most efficacious dose

Batch of 4 compounds: report HTR at most efficacious dose (bound) for each.
1. CCC(CC)NC(=O)[C@@H]1C=C2c3cccc4[nH]cc(c34)C[C@H]2N(C)C1 [Int14]
2. CCC[C@@H](C)NC(=O)[C@@H]1C=C2c3cccc4[nH]cc(c34)C[C@H]2N(C)C1 [Int17]
3. CCCN1C[C@H](C(=O)N[C@H](C)CC)C=C2c3cccc4[nH]cc(c34)C[C@H]21 [Compound 3]
4. CC[C@@H](C)NC(=O)[C@@H]1C=C2c3cccc4[nH]cc(c34)C[C@H]2N(CC)C1 [Compound 5]

["< 15 HTR", "< 15 HTR", "> 15 HTR", "> 15 HTR"]

Look at this compound and give its reported HTR at most efficacious dose (bound). CCCN1C[C@H](C(=O)NC(CC)CC)C=C2c3cccc4[nH]cc(c34)C[C@H]21 [Compound 6]
> 15 HTR

----------
Give measured half-life for each item. Keep answers brief.
# Protocol text: in vitro
# Type: in vitro ADME, human
# Reported conditions: human, microsomes; HLM 0.50 mg/mL, NADPH 1 mM, 1 μM compound, pH 7.4, 37° C., 60 min; read-out: half-life (t1/2)
Numbers only, in min.

Examples from the recorded data:
Look at this molecule and give its reported half-life. CN(C)C(=O)[C@@H]1C=C2c3cccc4[nH]cc(c34)C[C@H]2N(Cc2ccccc2)C1 [Compound 102]
82

Look at this molecule and give its reported half-life. CCN(CC)C(=O)[C@@H]1C=C2c3cccc4[nH]cc(c34)C[C@H]2N(Cc2ncco2)C1 [Compound 74]
30.5

Batch of 3 molecules: report half-life for each.
1. CC[C@@H](C)NC(=O)[C@H]1C=C2c3cccc4[nH]cc(c34)C[C@H]2N(Cc2ccccc2)C1 [Compound 88a]
2. CC[C@@H](C)NC(=O)[C@@H]1C=C2c3cccc4[nH]cc(c34)C[C@H]2N(Cc2cccc(OC)c2)C1 [Compound 95]
3. CCNC(=O)[C@@H]1C=C2c3cccc4[nH]cc(c34)C[C@H]2N(Cc2cccc(OC)c2)C1 [Compound 63]

4.6
2
3.1

----------
# Target or test system: 5-HT1A receptor (Homo sapiens, UniProt P08908)
# Sequence (P08908 whole entry): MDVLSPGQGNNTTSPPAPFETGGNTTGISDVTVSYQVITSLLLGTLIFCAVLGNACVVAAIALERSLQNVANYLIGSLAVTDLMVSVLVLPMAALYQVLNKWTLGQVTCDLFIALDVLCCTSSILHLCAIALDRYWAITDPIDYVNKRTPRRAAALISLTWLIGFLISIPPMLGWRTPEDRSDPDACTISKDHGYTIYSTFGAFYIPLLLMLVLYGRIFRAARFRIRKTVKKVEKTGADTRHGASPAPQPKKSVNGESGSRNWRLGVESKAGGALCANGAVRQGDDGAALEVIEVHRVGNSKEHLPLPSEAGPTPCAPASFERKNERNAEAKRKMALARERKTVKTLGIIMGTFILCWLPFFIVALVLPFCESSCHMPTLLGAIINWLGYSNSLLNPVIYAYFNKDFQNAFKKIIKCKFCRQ
# Protocol text: cell-based
# Reported conditions: agonist, Ca2+ flux, CHO cells with Gα15
pEC50: −log10 of the molar value.
Quantity: pEC50

Examples from the recorded data:
Look at this molecule and give its reported pEC50. CCN(CC)C(=O)[C@@H]1C=C2c3cccc4[nH]c(Br)c(c34)C[C@H]2N(C)C1
< 4.00

Look at this molecule and give its reported pEC50. CCN(CC)C(=O)[C@@H]1C=C2c3cccc4[nH]cc(c34)C[C@H]2N(Cc2ccc(F)cc2)C1
< 5.00

Look at this molecule and give its reported pEC50. COc1cccc(CN2C[C@H](C(=O)N3[C@@H](C)C[C@@H]3C)C=C3c4cccc5[nH]cc(c45)C[C@H]32)c1
< 4.00

Look at this molecule and give its reported pEC50. CCN(CC)C(=O)[C@H]1C=C2c3cccc4[nH]cc(c34)C[C@H]2N(CC2CCCC2)C1 [Compound 90a]
< 4.00

Turning now to a further molecule:
Look at this molecule and give its reported pEC50. CCN(CC)C(=O)[C@@H]1C=C2c3cccc4[nH]cc(c34)C[C@H]2N(Cc2ccc(C)cc2)C1
< 4.00
